- assay.system: Bombesin receptor subtype-3 (Homo sapiens) (UniProt P32247)
- Sequence (whole entry): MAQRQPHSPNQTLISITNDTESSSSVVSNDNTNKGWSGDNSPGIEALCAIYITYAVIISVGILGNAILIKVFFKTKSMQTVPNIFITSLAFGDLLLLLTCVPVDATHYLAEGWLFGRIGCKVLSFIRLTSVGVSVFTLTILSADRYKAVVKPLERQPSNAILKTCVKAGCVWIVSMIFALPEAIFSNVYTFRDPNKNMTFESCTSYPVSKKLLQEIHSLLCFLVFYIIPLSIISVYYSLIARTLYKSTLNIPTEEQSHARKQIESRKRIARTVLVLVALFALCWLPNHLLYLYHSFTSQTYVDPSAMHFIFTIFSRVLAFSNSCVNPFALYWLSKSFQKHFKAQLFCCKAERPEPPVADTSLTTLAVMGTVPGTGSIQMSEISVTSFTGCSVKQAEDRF
- assay.method.text: Agonist activity at human BRS3 expressed in human HEK293AEQ cells measured for 10 mins by aequorin bioluminescence assay relative to dY-peptide
- Assay type: functional, cell-based
recorded.metric: Activity (%)

>  <entry.smiles>
CC(C)(O)c1nc(C(C)(C)c2cccc3c2N(S(=O)(=O)c2ccc(OC(F)(F)F)cc2)Cc2ccc(C(F)(F)F)nc2N3)no1

>  <recorded.metric>
Activity

>  <quantity.unit>
%

>  <experimental.value>
97

$$$$
>  <entry.smiles>
CC(C)(C(N)=O)c1cccc2c1N(S(=O)(=O)c1ccc(OC(F)(F)F)cc1)Cc1ccc(C(F)(F)F)nc1N2

>  <recorded.metric>
Activity

>  <quantity.unit>
%

>  <experimental.value>
90

$$$$
>  <entry.smiles>
CC(C)(O)c1nc(-c2cccc3c2N(S(=O)(=O)c2ccc(OC(F)(F)F)cc2)Cc2ccc(C(F)(F)F)nc2N3)no1

>  <recorded.metric>
Activity

>  <quantity.unit>
%

>  <experimental.value>
106

$$$$
>  <entry.smiles>
CC(C)(O)c1nc(C2(c3cccc4c3N(S(=O)(=O)c3ccc(OC(F)(F)F)cc3)Cc3ccc(C(F)(F)F)nc3N4)CCC2)no1

>  <recorded.metric>
Activity

>  <quantity.unit>
%

>  <experimental.value>
97

$$$$
>  <entry.smiles>
NC(=O)C1(c2cccc3c2N(S(=O)(=O)c2ccc(OC(F)(F)F)cc2)Cc2ccc(C(F)(F)F)nc2N3)CCC1

>  <recorded.metric>
Activity

>  <quantity.unit>
%

>  <experimental.value>
95

$$$$
>  <entry.smiles>
CNC(=O)C1(c2cccc3c2N(S(=O)(=O)c2ccc(OC(F)(F)F)cc2)Cc2ccc(C(F)(F)F)nc2N3)CCC1

>  <recorded.metric>
Activity

>  <quantity.unit>
%

>  <experimental.value>
106

$$$$
